These entries and their values trace back to the array DNA melting data of Ke et al. (doi:10.1101/2024.01.08.574731).

assayNotes: melting temperature; fluorescence melt of hairpins on a sequencing array, two-state fit, raised by 9.35 °C to match UV melts
experimentalSetup: sodium 0.088 M
# Tm annotations

sequenceText	Tm / °C
GAAGCGGAAACGCTTC ((((((....))))))	67.6
GGTATACGAAAGTAGACC (((.(((....))).)))	52.1
GTACTCGGAAACGAATAC (((.(((....))).)))	33.5
GTTATTGGAAACGATAAC (((((.(....).)))))	38.7
GGGCTTGAAAAAGCCC ((((((....))))))	68.1
GGACACCGAAAGGTTCC (((.(((....))))))	48.6
GATCGGCATGCCGATC ((((((....))))))	67.4
GGTTACGGAAACGTAATC (.(((((....))))).)	45.5
GATCCTAACAGGATC ((((((...))))))	55.3
TGCTTGAAAAAGCA (((((....)))))	47.9
GCAAAGCGAAAGCATGGC ((.(.((....)).).))	38.3
GATCGCCGCCGCGATC ((((((....))))))	66.6
